This collection of values is drawn from patent US20050124544A1.

Listed here are binders together with their documented % inhibition.
test-system: 2C11 human monoclonal antibody
run-description: competition ELISA: 2C11 preincubated with peptide at 2 (µM per paragraph 93), then on immobilised FVIII
Where no end group is shown, it is not given here.
property-name: % inhibition (%)

Ac-ECGSHAWGRRCK (cysteine pairing not given here) [peptide 104 (…)] | 13.4
Ac-QCHTWSNRRSCL (cysteine pairing not given here) [peptide 108 (…)] | 15.8
Ac-KCGRWSNRSSCT (cysteine pairing not given here) [peptide 103 (…)] | 3.47
Ac-RCHAWSNRKSCV (cysteine pairing not given here) [peptide 109 (…)] | 12.5
Ac-SCHAWSNRRTCR (cysteine pairing not given here) [peptide 107 (…)] | 37.3
Ac-CMKWSNRSSRWC (cysteine pairing not given here) [peptide 106 (…)] | 0
Ac-CSKWHNRSKRHC (cysteine pairing not given here) [peptide 105 (…)] | 10.3
